Provenance of the data: ChEMBL document CHEMBL1821651

assay: Elimination half life in iv dosed Sprague-Dawley rat; type: ADME, organism-based; details: in vivo, read-out: beta t1/2 (converted)
REPORTED METRIC: half-life

{"MOL": "CC(=O)Nc1cn2nc(-c3cnc(Cl)c(NS(=O)(=O)c4ccc(F)cc4)c3)ccc2n1", "TEST RESULT": "7 h"}

----------
experiment: in vitro; conditions: human, liver microsomes
Description: Clearance in human liver microsomes

{"MOL": "CC(=O)Nc1nc2ccc(-c3cnc(Cl)c(NS(=O)(=O)c4ccc(F)cc4)c3)cc2s1", "microsomal CLint": "< 26 µL/min/mg"}

----------
assay: Oral bioavailability in Sprague-Dawley rat at 2 mg/kg; format: ADME, organism-based; conditions: in vivo

{"MOL": "CC(=O)Nc1cn2nc(-c3cnc(Cl)c(NS(=O)(=O)c4ccc(F)cc4)c3)ccc2n1", "UNIT OF MEASURE": "%", "bioavailability": 46}
